# System: RARa:RXR (NR concentration 270 nM, RXRa partner concentration 90 nM)
# experiment description: PBM binding z-score (relative to random genomic background probes); higher = stronger binding; sequences stand for … in GC…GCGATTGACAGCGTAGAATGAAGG
As shown below, each of these sequences has a reported PBM binding z-score value.

Some solved entries appear below for comparison.
query: Please look up its PBM binding z-score: TAGCCTAGGTCATGCGGGGCAGTATAGTGTCGGC
result: 2.61

query: And then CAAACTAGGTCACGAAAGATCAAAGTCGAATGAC , what is it?
result: 3.39

query: And then CATACTAGGTCAAGGTCAAAGTCGGTTTGTGCCA , what is it?
result: 5.37

query: And then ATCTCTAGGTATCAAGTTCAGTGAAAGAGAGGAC , what is it?
result: 0.725

query: And then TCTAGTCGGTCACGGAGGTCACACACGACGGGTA , what is it?
result: 5.02

query: And then TCATATAGGTAAACGGTGAAAGTCGGTGTGGTAA , what is it?
result: 0.111

query: And then TCTGCTAGGTCAGTTGATCAGCTAACGAGCTGCC , what is it?
result: 0.424

query: And then CCTAGCAGGCCAATCTGGGTCATTCAAGGCTTGA , what is it?
result: 1.04

query: And then TGAATGAGGTTTTAAGATCAGGGAACGTTGCAAA , what is it?
result: 0.152

query: And then AGAATGAGGTTATTAAGATCAGGGTATTGCGGTC , what is it?
result: 1.28

More entries:
query: Please look up its PBM binding z-score: TAGCTTAGGTCATGCGGGCCAGTATAGTGTCGGC
result: 2.73

query: And then CCGAGGAGGTTATGGGGCATTCAGGCAACGGTGA , what is it?
result: 1.43

query: And then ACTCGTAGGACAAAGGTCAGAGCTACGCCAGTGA , what is it?
result: 4.94

query: And then TCATATAGGTAAATGCTAGGTGAAAGTGCGATCT , what is it?
result: 1.12

query: And then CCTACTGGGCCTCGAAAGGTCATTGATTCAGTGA , what is it?
result: 4.9

query: And then TCTGCTAGGTCAGTTGGTCAGGTAACGAGCTGCC , what is it?
result: 0.735

query: And then ATCGAAAGGTCGGCGAGGTGAGTATACACCGTTT , what is it?
result: 2.77

====

# System: LXRb homodimer (NR concentration 270 nM)
# experiment description: PBM binding z-score (relative to random genomic background probes); higher = stronger binding; sequences stand for … in GC…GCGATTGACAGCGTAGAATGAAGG
property measured: PBM binding z-score
Number only, please.

query: Please look up its PBM binding z-score: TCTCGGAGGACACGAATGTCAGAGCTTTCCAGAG
result: -0.958

query: And then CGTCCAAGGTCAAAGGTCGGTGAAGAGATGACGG , what is it?
result: 0.738

query: And then TCTTGTAGATCAGAAGGTTAAGAAAGCTGGCCAA , what is it?
result: -0.193

query: And then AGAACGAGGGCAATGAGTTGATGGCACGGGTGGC , what is it?
result: -0.436

query: And then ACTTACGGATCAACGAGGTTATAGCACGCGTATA , what is it?
result: 0.594

More entries:
query: Please look up its PBM binding z-score: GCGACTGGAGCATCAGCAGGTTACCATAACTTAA
result: -1.27
